pIC50: −log10 of the molar value.
Reported pIC50, His tagged full-length PTPN1 protein (Homo sapiens, UniProt P18031).

A selection of reference data follows.
Molecule: O=C1CN(c2c(O)cc3c(c2F)C[C@H](NCCC2CCOCC2)CC3)S(=O)(=O)N1
pIC50: 7.00 to 8.00

Molecule: NC[C@@H]1Cc2cc(O)c(N3CC(=O)NS3(=O)=O)c(F)c2C1 (single isomer, unassigned)
pIC50: 8.00 to 9.00

Molecule: O=C1CN(c2c(O)cc3c(c2F)C[C@H](NCC2(C(F)F)CC2)CC3)S(=O)(=O)N1
pIC50: 7.00 to 8.00

We next turn to a different molecule, shown below.
Documented pIC50 of `C[C@@H]1C[C@@H](NC(=O)OC(C)(C)C)Cc2c1cc(O)c(N1CC(=O)NS1(=O)=O)c2F` : < 7.00

meta.source: patent US20250122160A1
